Target: T1, CLL-1 (UniProt Q5QGZ9 65-265, limits assumed)
T1 sequence (looked up): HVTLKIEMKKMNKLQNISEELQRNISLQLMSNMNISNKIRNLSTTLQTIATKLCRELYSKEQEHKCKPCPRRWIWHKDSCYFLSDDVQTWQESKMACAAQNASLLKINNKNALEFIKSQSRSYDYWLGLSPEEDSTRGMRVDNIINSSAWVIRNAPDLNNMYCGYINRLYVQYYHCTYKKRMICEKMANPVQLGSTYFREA
Experiment: method not stated (Table 2, affinity of antibodies for CLL-1)
MEASURED_QUANTITY: Kd
Note to self: number, then unit, no commentary.

Some entries whose results are on file:
{"BINDER": "M22 (antibody, V domains shown) VH: QVQLQQPGAELVKPGASVKLSCKASGYTFTRYWMHWVKQRPGQGLEWIGNIDPSDTETHYNQQFKDKATLTVDKSSSTAYMQLSSLTSEDSAVYYCAIYYGNPSYYAMDYWGQGTSVTVSS VL: DIVMTQSPSSLTVTAGEKVTMSCKSSQNLLNSGNQKKYLNWYQQKPGQPPKLLIYWASTRESGVPDRFTGSGSGTDFTLTISSVQAEDLAVYFCQNDYSYPFTFGAGTKLELK", "RESULT": "0.388 nM"}
{"BINDER": "M26 (antibody, V domains shown) VH: EVQLQQSGPELVKPGASVKMSCKASGYTFTSYFIHWVKQKPGQGLEWIGFINPYNDGSKYNEKFKGKATLTSDKSSSTAYMELSSLTSEDSAVYYCTRDDGYYGYAMDYWGQGTLVTVSS VL: DIQMTQSPSSLSASLGERVSLTCRATQELSGYLSWLQQKPDGTIKRLIYAASTLDSGVPKRFSGNRSGSDYSLTISSLESEDFADYYCLQYAIYPYTFGGGTKLEIK", "RESULT": "0.214 nM"}
{"BINDER": "G12 (antibody, V domains shown) VH: QVQLQQPGAELVKPGASMKMSCKASGYTFPSSNIHWLKQTPGQGLEWIGVIYPGNGDTSYNQKFKDKATLTTDKSSSTAYMQLSSLTSEDSAIYFCARVYNWHFDVWGAGTTVTVSS VL: NIVLTQSPASLAVSLGQRATISCRASESVDGYGDIFMLWYQQKPGQPPKLLIYFASNLESGVPARFSGSGSRTDFTLTIDPVEADDAATYYCQQNNEDPYTFGGGTKLEIK", "RESULT": "0.07 nM"}

Task: So what does the record say about Kd for M29 (antibody, V domains shown) VH: EVQLQQSGPELVKPGASVKMSCKASGYIFTSYVMYWVKQKPGQGLEWIGYINPYNDGTKYNEKFKGKATLTSDKSSSTAYMELSSLTSEDSAVYYCARYYDYDYYFDYWGQGTTLTVSS VL: DIQMTQSPSSLSASLGGKVTITCKASQDINKYIAWYQHKPGKGPRLLIHYTSTLQPGIPSRFSGSGSGRDYSFSISNLEPEDIATYYCLQYDYLWTFGGGTKLEIK ?
Result: 1.48 nM
